target: MMP-9 (Homo sapiens)
Sequence (P14780 107-707 limits assumed): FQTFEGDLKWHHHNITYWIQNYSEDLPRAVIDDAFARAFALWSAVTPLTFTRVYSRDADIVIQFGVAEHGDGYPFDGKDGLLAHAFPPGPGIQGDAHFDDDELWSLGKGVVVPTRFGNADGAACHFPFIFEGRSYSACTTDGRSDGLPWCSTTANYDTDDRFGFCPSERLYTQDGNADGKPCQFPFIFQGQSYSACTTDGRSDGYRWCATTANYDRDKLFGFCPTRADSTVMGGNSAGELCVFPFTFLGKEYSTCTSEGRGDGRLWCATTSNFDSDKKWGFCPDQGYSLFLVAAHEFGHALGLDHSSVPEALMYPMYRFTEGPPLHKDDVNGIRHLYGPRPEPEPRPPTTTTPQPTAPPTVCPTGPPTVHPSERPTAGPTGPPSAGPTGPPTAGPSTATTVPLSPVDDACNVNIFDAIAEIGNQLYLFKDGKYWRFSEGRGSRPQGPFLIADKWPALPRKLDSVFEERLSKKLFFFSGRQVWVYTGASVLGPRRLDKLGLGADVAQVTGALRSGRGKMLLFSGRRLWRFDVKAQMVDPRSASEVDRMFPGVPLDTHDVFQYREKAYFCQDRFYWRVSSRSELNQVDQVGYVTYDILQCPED
The label YES is reserved for Ki strictly under 0.7 µM; NO covers values equal to or above it.

Dear colleague, could you confirm whether Ki of O=C(CC(CCc1ccccc1C(=O)NCCCc1ccccc1)C(=O)O)c1ccc(-c2ccc(Cl)cc2)cc1 (stereo not shown) falls below 0.7 µM? Thanks.
YES

Consider next the molecule CCCCCOc1ccc(-c2ccc(C(=O)CC(CCc3cccc(C(=O)N4CCCCC4)c3)C(=O)O)cc2)cc1 (stereo not shown) in the same way.
YES

# repeat for CCOC(=O)CNC(=O)c1ccc(CCC(CC(=O)c2ccc(-c3ccc(Cl)cc3)cc2)C(=O)O)cc1 (stereo not shown)
YES

Would you kindly repeat that for O=C(CC(CCc1cccc(C(=O)N2CCCCC2)c1)C(=O)O)c1ccc(-c2ccc(OCc3ccccc3)cc2)cc1 (stereo not shown) ?
YES

Now this one: O=C(CC(CCc1ccccc1C(=O)NCCc1ccccc1)C(=O)O)c1ccc(-c2ccc(Cl)cc2)cc1 (stereo not shown)
YES

Note, next up: O=C(CC(CCc1ccc(C(=O)N2CCCCC2)cc1)C(=O)O)c1ccc(-c2ccc(Cl)cc2)cc1 (stereo not shown)
NO

Repeat with O=C(CC(CCc1cccc(C(=O)NCCc2ccccc2)c1)C(=O)O)c1ccc(-c2ccc(Cl)cc2)cc1 (stereo not shown)
NO

Please answer likewise for O=C(CC(CCc1ccc(C(=O)NCCc2ccccc2)cc1)C(=O)O)c1ccc(-c2ccc(Cl)cc2)cc1 (stereo not shown)
NO

Same again, this time with CCOC(=O)CN(C)C(=O)c1ccccc1CCC(CC(=O)c1ccc(-c2ccc(Cl)cc2)cc1)C(=O)O (stereo not shown)
YES

Okay, and O=C(CC(CCc1cccc(C(=O)N2CCOCC2)c1)C(=O)O)c1ccc(-c2ccc(Cl)cc2)cc1 (stereo not shown) ?
YES

Another molecule to look at: O=C(O)CNC(=O)c1ccc(CCC(CC(=O)c2ccc(-c3ccc(Cl)cc3)cc2)C(=O)O)cc1 (stereo not shown)
NO

Also, CC(C)CCNC(=O)c1ccc(CCC(CC(=O)c2ccc(-c3ccc(Cl)cc3)cc2)C(=O)O)cc1 (stereo not shown) please.
YES

Subsequent entry: O=C(CC(CCc1cccc(C(=O)NCc2ccccc2)c1)C(=O)O)c1ccc(-c2ccc(Cl)cc2)cc1 (stereo not shown)
YES

Now consider O=C(O)CCNC(=O)c1ccccc1CCC(CC(=O)c1ccc(-c2ccc(Cl)cc2)cc1)C(=O)O (stereo not shown) .
NO

Now the same for O=C(CC(CCc1cccc(C(=O)NCCCc2ccccc2)c1)C(=O)O)c1ccc(-c2ccc(Cl)cc2)cc1 (stereo not shown)
YES

How about this molecule: O=C(CC(CCc1ccccc1C(=O)N1CCCCC1)C(=O)O)c1ccc(-c2ccc(Cl)cc2)cc1 (stereo not shown)
YES

What do you get for O=C(O)CNC(=O)c1ccccc1CCC(CC(=O)c1ccc(-c2ccc(Cl)cc2)cc1)C(=O)O (stereo not shown) ?
NO

Now consider CCOC(=O)CN(C)C(=O)c1cccc(CCC(CC(=O)c2ccc(-c3ccc(Cl)cc3)cc2)C(=O)O)c1 (stereo not shown) and answer again.
YES

Check CCOC(=O)CNC(=O)c1ccccc1CCC(CC(=O)c1ccc(-c2ccc(Cl)cc2)cc1)C(=O)O (stereo not shown) too.
NO

Next molecule up: CC(C)CCNC(=O)c1ccccc1CCC(CC(=O)c1ccc(-c2ccc(Cl)cc2)cc1)C(=O)O (stereo not shown)
YES

What do we get for O=C(CC(CCc1ccccc1C(=O)NCc1ccccc1)C(=O)O)c1ccc(-c2ccc(Cl)cc2)cc1 (stereo not shown) ?
YES
